Data provenance is patent US20220153839A1.

Biological target: T1, hFc-hROR1 (extracellular domain of human ROR1 fused to the Fc domain of human IgG1) (human, UniProt Q01973 30-406)
T1 construct: extracellular domain; also called hFc-ROR1; not shown: Fc domain of human IgG1
T1 sequence (Q01973 30-406): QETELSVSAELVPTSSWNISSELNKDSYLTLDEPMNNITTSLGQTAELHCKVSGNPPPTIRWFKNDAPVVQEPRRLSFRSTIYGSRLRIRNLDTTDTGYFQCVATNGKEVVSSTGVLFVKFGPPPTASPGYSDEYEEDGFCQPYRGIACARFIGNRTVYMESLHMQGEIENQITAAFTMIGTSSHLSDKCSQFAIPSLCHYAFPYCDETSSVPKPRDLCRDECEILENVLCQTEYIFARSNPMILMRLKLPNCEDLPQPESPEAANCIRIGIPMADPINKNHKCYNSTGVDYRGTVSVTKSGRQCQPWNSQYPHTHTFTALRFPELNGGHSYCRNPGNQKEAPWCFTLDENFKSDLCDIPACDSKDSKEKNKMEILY
Test: SPR (Biacore X100); hFc-hROR1 captured by anti-human Fcγ antibody on CM5; Fab as analyte; 1:1 Langmuir fit
Experimental: (A) Shown are Biacore X100 sensorgrams obtained for the binding of each Fab to hFc-hROR1 captured by anti-human Fcγ antibody immobilized on CM5 chip after instantaneous background depletion. Fabs were injected at five different concentrations with the highest concentration indicated in table (B), one of the five concentrations was tested in duplicates. The equilibrium dissociation constant (Kd) was calculated from koff/kₒₙ (kₒₙ, association rate constant; koff, dissociation rate constant). […]
# maps each entry to its Kd
Give the quantity in nM, number only.

Guide cases for Kd, answers given:
binder	Kd, nM
ERR1-TOP15 chimeric rabbit/human Fab (Fab, V domains shown, Chimeric rabbit/human Fab with His tag, expressed in E. coli (pET11a); lambda light chain) VH: QEQLVESGGRLVTPGGSLTLTCAASGFSPSSYWMSWVRQAPGKGLEWIGAIYVDSGSAYYASWAKSRFTISKTSSTTVDLKMTSLTTEDTAIYFCARDGWGSDVWGPGTLVTISS VL: SYELTQLPSVSVSLGQTARITCGGNSIGSKAVHWYQQKPGLAPGLLIYDDDERPSGVPDRFSGSNSGDTATLTISGAQAGDEADYYCQLWDSSAGAYVFGGGTQLTVTG	139
ERR1-403 chimeric rabbit/human Fab (Fab, V domains shown, Chimeric rabbit/human Fab with His tag, expressed in E. coli (pET11a); lambda light chain) VH: QEQLKESGRGLVQPGGSLKLSCKASGFDFSGWYMTWVRQAPGKGLEWIGTIGTTKGRTYYASWVNGRFTISSNAQNTVDLQMNSLTAADRATYFCVRGSDYFDLWGPGTLVTISS VL: SYELTQLPSVSVSLGQTARITCGGNSIGSKAVNWYQQKPGLAPGLLIYDDDERPSGVPARFSGSNSGDTATLTISGAQAGDEADYYCQLWDSSAGAYVFGGGTQLTVTG	41.6
XBR1-402 chimeric rabbit/human Fab (Fab, V domains shown, Chimeric rabbit/human Fab with His tag, expressed in E. coli (pC3C-His); lambda light chain) VH: QEQQKESGGGLFKPTDTLTLTCTASGFDISSYYMSWVRQAPGNGLEWIGAIGISGNAYYASWAKSRSTITRNTNLNTVTLKMTSLTAADTATYFCARDHPTYGMDLWGPGTLVTVSS VL: SYELTQLPSVSVSLGQTARITCEGNNIGSKAVHWYQQKPGLAPGLLIYDDDERPSGVPDRFSGSNSGDTATLTISGAQAGDEADYYCQVWDSSAYVFGGGTQLTVTG	5.81

Here is another binder to look at.
Ask: For the binder ERR1-TOP43 chimeric rabbit/human Fab (Fab, V domains shown, Chimeric rabbit/human Fab with His tag, expressed in E. coli (pET11a); lambda light chain) VH: QSLEESGGRLVTPGTPLTLTCTVSGFSLSSYWMSWVRQAPGKGLEWIGAIYGSGNTYYASWAKGRFTISKTSTTVDLKITSPTTEDTATYFCARDVHSTATDLWGPGTLVTISS VL: SYELTQLPSVSVSLGQTARITCGGNNIGSKAVNWYQQKPGLAPGLLIYNDDERPSGVPDRFSGSNSGDTATLTISGAQAGDEADYYCQLWDSSAGAYVFGGGTQLTVTG , give its measured Kd value.
Result: 1.11
